system: agr quorum-sensing system (agr P3lux reporter strain AH2759); experiment: agr P3lux reporter strain assay for quorum sensing inhibition; assay type: cell-based, Staphylococcus aureus (CA-MRSA strain LAC, USA300); details: Staphylococcus aureus, read-out: agr P3lux IC50, reporter strain AH2759; cell-density-normalized luminescence; ± standard error from four-parameter logistic fit
Reported IC50 is given for each of the following molecules.
measured endpoint: IC50

C[C@H](O)Cc1cc(O)c2c(c1)C(=O)c1cc(O)cc(O)c1C2=O [compound 6, (+)-2′S-isorhodoptilometrin]	< 10 µM
O=C1c2cc(O)cc(O)c2C(=O)c2c(O)cc(CO)cc21 [compound 3, ω-hydroxyemodin]	< 10 µM
